Data origin: a melting point compilation (Tetko et al.; mined from patent text by program, amines drawn as free bases though some values may be those of a salt)

assay endpoint: melting point

{"columns": ["compound", "assay endpoint", "value reported"],
 "data": [
  ["COC(=O)c1ccccc1Nc1cc(C(C)(C)C)c(O)c(C(C)(C)C)c1", "melting point", "155 to 158 °C"],
  ["CCSC1=N[C@@H](c2ccccc2)[C@H](c2ccccc2)N1 (relative stereo)", "melting point", "130 to 132 °C"],
  ["COc1ccc(C(=O)N(C(=O)c2ccc(OC)cc2)c2nc3ccc(N(C)C)cc3c(NCc3ccco3)c2C#N)cc1", "melting point", "143 °C"],
  ["CCCC(CCC)c1ccc(COc2ccc(-c3csc(COc4cncc(C(=O)O)c4)n3)cc2)cc1", "melting point", "172 to 174 °C"],
  ["CSc1nc(Br)cc(Br)n1", "melting point", "82 to 84 °C"],
  ["O=S(=O)(c1ccccc1)N1CCCC1c1ccc(C(F)(F)F)cc1 (racemic)", "melting point", "95 °C"],
  ["Cc1cc(C(=O)CCc2sc(-c3ccc(C(F)(F)F)cc3)cc2C(C)C)ccc1OCC(=O)O", "melting point", "139 to 143 °C"],
  ["CC(Cc1cc2ccccc2[nH]1)(NC(=O)OC1C2CC3CC(C2)CC1C3)C(=O)NCC(N)c1ccccc1 (centres undefined)", "melting point", "96 to 102 °C"],
  ["Oc1ccc(Nc2nccc(-c3cccnc3)n2)cc1", "melting point", "223 to 225 °C"],
  ["O=C(Oc1ccccc1)N1CCC2(CC1)c1ccccc1Oc1ccccc12", "melting point", "105 to 107 °C"],
  ["CCOC(=O)c1cccc(-c2ccccc2C#N)c1", "melting point", "81.5 to 82 °C"],
  ["CC(Oc1ccc(COc2ccc(Cl)cc2)cc1)C(=O)OCCOc1cc(Cl)c(Cl)cc1Cl (centres undefined)", "melting point", "83 °C"],
  ["O=c1oc2ccccc2c(O)c1C1CC(c2ccc(Oc3ccc(-c4ccc(Cl)cc4)cc3)cc2)Cc2ccccc21 (centres undefined)", "melting point", "132 °C"],
  ["COC(CNC(=O)CCN1C(=O)NC(C)(C)C1=O)OC", "melting point", "123 °C"],
  ["CCOc1nc(SC)nc(N2CCS(=O)CC2)c1[N+](=O)[O-]", "melting point", "102 to 104 °C"],
  ["CCCCn1cc2c(n1)c(N)nc1ccccc12", "melting point", "194 to 195 °C"],
  ["CC(C)N1CCC(C(C#N)(c2ccccc2)c2ccccc2)C1 (centres undefined)", "melting point", "73 to 74 °C"],
  ["COc1cc(C(O)CS(C)(=O)=O)cc(OC)c1N(C)C(C)=O (centres undefined)", "melting point", "175 to 177 °C"],
  ["Cc1c(N)cc2c(c1C)OC(C)(C)C2=O", "melting point", "149 to 150 °C"],
  ["ClC(Cl)=CCOc1cc(Cl)c(OCc2cccc(Cl)c2)c(Cl)c1", "melting point", "87 °C"],
  ["CC(COc1cccc(=O)n1O)CC(C)(C)C (centres undefined)", "melting point", "134 °C"],
  ["COc1ccc(OC)c(S(=O)(=O)Nc2ccccc2/C=C/c2ccncc2)c1", "melting point", "193 to 195 °C"],
  ["CN1CC(CCn2cccn2)Oc2ncccc2C1=O (centres undefined)", "melting point", "132 to 134 °C"],
  ["Cc1cc(OC(F)(F)F)ccc1O", "melting point", "72 °C"],
  ["Cc1c(F)c(F)cc(C(=O)O)c1Cl", "melting point", "121 to 122 °C"],
  ["COc1ccc(C(=O)CO)cc1", "melting point", "101 to 103 °C"],
  ["COCCOc1cc(C(F)(F)F)cc(Oc2ccc(CCNc3ncnc4nccnc34)cc2)n1", "melting point", "101 to 104 °C"],
  ["CCCCCCCCCCCCC#CCO", "melting point", "36 to 37 °C"],
  ["CCOC(=O)C1CCN(C(=O)OC)CC1=O (centres undefined)", "melting point", "36 to 38 °C"]
]}
